- Tested on: NCI-H460 lung
- experiment.notes: NCI-60 one-dose screen, 48 h
- recorded.conditions: 10 µM
About 83,000 compounds went through this panel and 20% of them were active in at least one assay; those are over-represented in the sample as a whole. Active and inactive are the calls of the source. How the source made its calls: active means growth percent below 10; inactive means the rest.
# valid calls are T (active), F (inactive); nothing else

molecule: Clc1ccc(-c2cn(-c3ccccc3)c(-c3ccccc3)n2)c(Cl)c1
assigned.label: T
--
molecule: O=C(CSSCC(=O)c1ccc(Cl)cc1)c1ccc(Cl)cc1
assigned.label: F
--
molecule: Nc1nc(N=Nc2ccc(O)cc2)cc(=O)[nH]1
assigned.label: F
--
molecule: COc1cc(Cl)cc(-c2nn(-c3cccc(NC(=O)Nc4ccc(Cl)c(C(F)(F)F)c4)c3)cc2-c2ccncc2)c1
assigned.label: T
--
molecule: CCN(CC)CCCC(C)Nc1ccc2ccc(Cl)cc2n1 (stereo not given)
assigned.label: F
--
molecule: COc1cc(-c2cc(/C=C/C(=O)c3ccc(Cl)c(Cl)c3)[nH]n2)cc(OC)c1OC
assigned.label: F
--
molecule: Clc1ccc(Nc2ccnc(NCCNc3ccnc4cc(Cl)ccc34)n2)cc1
assigned.label: T
--
molecule: N#Cc1ncc(Br)c(NC2CCCCCC2)n1
assigned.label: F
--
molecule: C#Cc1ccc(-n2c(/C=C/c3ccc(O)c(OC)c3)nc3ncccc3c2=O)cc1
assigned.label: F
--
molecule: COc1ccccc1CNCCCN1C(=O)c2ccc3c4c(ccc(c24)C1=O)C(=O)N(CCCN)C3=O
assigned.label: T

Qu. Hi team, can someone confirm the assay call for CCc1ccc2c(c1)N(CCO)C1=C(C(=O)OC1)C2c1cc(OC)c(OC)c(OC)c1 (stereo not given) ?
Ans. T

Qu. Hi team, can someone confirm the assay call for COc1ccc(-c2cc(/C=C/C(=O)c3cc(OC)c(OC)c(OC)c3)[nH]n2)cc1OC ?
Ans. T

Qu. Hi team, can someone confirm the assay call for C#Cc1ccc(-n2c(/C=C/c3ccc4ccccc4c3)nc3ncccc3c2=O)cc1 ?
Ans. F

Qu. Hi team, can someone confirm the assay call for CCOC(=O)N1C/C(=C/c2ccc(Cl)cc2)C(=O)/C(=C/c2ccc(Cl)cc2)C1 ?
Ans. F

====

- Test system: M14 melanoma
- experiment.notes: NCI-60 one-dose screen, 48 h
- recorded.conditions: 10 µM
Compounds without any hit were thinned out: in the full panel of roughly 83,000, 20% have a hit. Active and inactive are the calls of the source. Rule for the calls: active = growth percent below 10; inactive = the rest.
# valid calls are 1 (yes) = active, 0 (no) = inactive; nothing else

Known results for compounds:
compound: Nc1nccc(Nc2ccccc2)n1
assigned.label: 0 (no)
--
compound: COc1cccc(C2C3=C(COC3=O)N(CCO)c3cc(OC)ccc32)c1 (configuration not stated)
assigned.label: 1 (yes)
--
compound: Cc1cn(C2CCCCO2)c(=O)nc1NO (configuration not stated)
assigned.label: 0 (no)
--
compound: COc1cc(Cl)cc(-c2nn(-c3cccc(NC(=O)Nc4ccc(Cl)c(Cl)c4)c3)cc2-c2ccncc2)c1
assigned.label: 0 (no)

Qu. Hi team, can someone confirm the assay call for Nc1ncn([C@@H]2O[C@H](CO)[C@@H](O)[C@H]2O)c(=O)n1 ?
Ans. 0 (no)

Qu. Hi team, can someone confirm the assay call for NC(=O)c1ccc(-c2cccc3c(=O)nc(N4CCOCC4)oc23)cc1 ?
Ans. 0 (no)

Qu. Hi team, can someone confirm the assay call for CCOC(=O)c1ccoc1 ?
Ans. 0 (no)

Qu. Hi team, can someone confirm the assay call for Cc1nc2c(c(=O)[nH]1)OCN(Cc1ccccc1)C2 ?
Ans. 0 (no)

Qu. Hi team, can someone confirm the assay call for COc1ccc2c(c1)-c1c(c3cc(OC)ccc3n(CCN(C)C)c1=O)C2=O ?
Ans. 0 (no)

Qu. Hi team, can someone confirm the assay call for ClCCOCCn1cnc2c(Cl)nc(Cl)nc21 ?
Ans. 0 (no)

Qu. Hi team, can someone confirm the assay call for NC1=NC(=O)C(c2ccccc2)(c2ccccc2)S1 ?
Ans. 0 (no)

Qu. Hi team, can someone confirm the assay call for CN(C)c1ccc(N=C2C=CC(=O)c3ccccc32)cc1 ?
Ans. 1 (yes)
